Tested on: MMP14 (Homo sapiens)
Assay procedure: Internally quenched peptide probe cleavage assay (Example 8)
Format: biochemical
Experimental context: 20 μM peptide probe, 20 nM protease, 37° C.
Ends that are not written are not given here.
The following substances are shown together with reported Probe Cleavage (pM/s) MMP14 values.
Hi! Could you send only the number? It should be in pM/s, unit omitted.

Answered cases to consult:
| Substance | Measured |
| --- | --- |
| PWGLRS [tested as internally quenched peptide probe] | 4380 |
| RSPWGL [tested as internally quenched peptide probe] | 9580 |
| APMGLKH [CM 7046, also tested as internally quenched peptide probe] | 114000 |

Okay, next one:
Ask: Entry PMGLKS (also: internally quenched fluorophore/quencher probe, groups not placed) [CM 7018, tested as internally quenched peptide probe] needs its Probe Cleavage (pM/s) MMP14 filled in; supply it.
Result: 153000

----------
Tested on: MMP9 (Homo sapiens)
Sequence (P14780 107-707 limits assumed): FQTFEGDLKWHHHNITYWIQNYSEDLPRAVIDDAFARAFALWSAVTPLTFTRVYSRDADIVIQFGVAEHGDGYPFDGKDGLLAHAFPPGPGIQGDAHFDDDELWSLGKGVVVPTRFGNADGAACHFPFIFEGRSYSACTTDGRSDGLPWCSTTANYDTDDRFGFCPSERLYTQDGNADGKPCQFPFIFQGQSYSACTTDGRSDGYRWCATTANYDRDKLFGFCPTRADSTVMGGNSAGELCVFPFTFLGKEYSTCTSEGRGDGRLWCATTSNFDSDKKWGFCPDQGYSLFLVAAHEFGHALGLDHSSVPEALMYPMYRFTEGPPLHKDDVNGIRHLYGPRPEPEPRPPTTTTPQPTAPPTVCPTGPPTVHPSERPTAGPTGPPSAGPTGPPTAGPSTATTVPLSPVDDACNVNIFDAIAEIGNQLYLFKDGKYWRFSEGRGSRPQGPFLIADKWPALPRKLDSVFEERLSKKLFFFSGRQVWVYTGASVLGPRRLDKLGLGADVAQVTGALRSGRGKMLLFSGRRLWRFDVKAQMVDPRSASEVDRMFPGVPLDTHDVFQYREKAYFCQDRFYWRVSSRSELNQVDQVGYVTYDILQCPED
Assay procedure: Internally quenched peptide probe cleavage assay (Example 8)
Type: biochemical
Experimental context: 20 μM peptide probe, 20 nM protease, 37° C.
Ends that are not written are not given here.
Readout type: Probe Cleavage (pM/s) MMP9
Write it as a number; the unit pM/s goes unstated.

Sample answers from the record:
| Substance | Readout type | Measured |
| --- | --- | --- |
| APMGLKH [CM 7046, also tested as internally quenched peptide probe] | Probe Cleavage (pM/s) MMP9 | 115000 |
| PMGLKS (also: internally quenched fluorophore/quencher probe, groups not placed) [CM 7018, tested as internally quenched peptide probe] | Probe Cleavage (pM/s) MMP9 | 133000 |
| PWGLRS [tested as internally quenched peptide probe] | Probe Cleavage (pM/s) MMP9 | 3830 |

Now consider a different substance.
Ask: Given the substance RSPWGL [tested as internally quenched peptide probe] , write its reported Probe Cleavage (pM/s) MMP9.
Result: 25500
